# Species: Rattus norvegicus
# METHOD_DESCRIPTION: Open TG-GATES - Regimen: Single
# Assay type: toxicity, organism-based, Sprague-Dawley
# Parameters: regimen Single, gender Male, age 6 weeks
# MEASUREMENT_PARAMETERS: in vivo, po, 1000 mg/kg, 24 h, tissue Kidney, route gavage, dose level High
Documented KIDNEY_L across a set of compounds
Give the number; g is assumed, so skip it.

O=C(O)c1cn(C2CC2)c2cc(N3CCNCC3)c(F)cc2c1=O :: 0.8
Clc1ccccc1CN1CCc2sccc2C1 :: 1
O=C(O)c1cc(/N=N/c2ccc(S(=O)(=O)Nc3ccccn3)cc2)ccc1O :: 1
CCc1cc(C(N)=S)ccn1 [ETHIONAMIDE] :: 1

Consider the record given below.
Task: What measured KIDNEY_L goes with "C[C@H](CS)C(=O)N1CCC[C@H]1C(=O)O" ?
Result: 1.1

---

Documented Cl across a set of compounds
# Species: Rattus norvegicus
# METHOD_DESCRIPTION: Open TG-GATES - Regimen: Single
# Type: toxicity, organism-based, Sprague-Dawley
# Design: regimen Single, gender Male, age 6 weeks
# MEASUREMENT_PARAMETERS: in vivo, po, 0 mg/kg, 3 h, tissue Plasma, route gavage, dose level Control
Kindly format the answer as number then unit.

COc1ccc(Cc2nccc3cc(OC)c(OC)cc23)cc1OC [PAPAVERINE] :: 108.6 meq/L
O=C(O)c1cc(/N=N/c2ccc(S(=O)(=O)Nc3ccccn3)cc2)ccc1O [SULFASALAZINE] :: 101.6 meq/L
Cn1c(=O)c2[nH]cnc2n(C)c1=O.O [THEOPHYLLINE] :: 105 meq/L
CN(C)CCC=C1c2ccccc2CCc2ccccc21 [AMITRIPTYLINE] :: 106 meq/L

Consider the record given below.
Task: What measured Cl goes with CC(=O)Oc1ccccc1C(=O)O [ASPIRIN] ?
Result: 103.8 meq/L

---

# Species on record: Rattus norvegicus
# METHOD_DESCRIPTION: Open TG-GATES - Regimen: Single
# Assay type: toxicity, organism-based, Sprague-Dawley
# Design: regimen Single, gender Male, age 6 weeks
# MEASUREMENT_PARAMETERS: in vivo, po, 0 mg/kg, 9 h, tissue Blood, route gavage, dose level Control
Documented MCV across a set of molecules
Give the number; fL is assumed, so skip it.

Solved cases below.
CN(C)CCC=C1c2ccccc2CCc2ccccc21 :: 63.9
O=C(O)c1cn(C2CC2)c2cc(N3CCNCC3)c(F)cc2c1=O :: 65.6

Task: What measured MCV goes with "Cn1c(=O)c2[nH]cnc2n(C)c1=O.O" ?
Result: 61.6

Task: # iterate: CCc1cc(C(N)=S)ccn1 [ETHIONAMIDE]
Result: 64.3

Task: # iterate: "COc1ccc(Cc2nccc3cc(OC)c(OC)cc23)cc1OC"
Result: 61.6

Task: # iterate: CSc1ccc2c(c1)N(CCC1CCCCN1C)c1ccccc1S2 (configuration not stated)
Result: 65.4

---

# Species on record: Rattus norvegicus
# METHOD_DESCRIPTION: Open TG-GATES - Regimen: Single
# Assay type: toxicity, organism-based, Sprague-Dawley
# Parameters: regimen Single, gender Male, age 6 weeks
# MEASUREMENT_PARAMETERS: in vivo, po, 300 mg/kg, 9 h, tissue Blood, route gavage, dose level Middle
QUANTITY: MCHC (%)
Give the number; % is assumed, so skip it.

Solved cases below.
CCc1cc(C(N)=S)ccn1 [ETHIONAMIDE] :: 33.7
C[C@H](CS)C(=O)N1CCC[C@H]1C(=O)O [CAPTOPRIL] :: 32.8

Task: What measured MCHC goes with Clc1ccccc1CN1CCc2sccc2C1 [TICLOPIDINE] ?
Result: 35.3

Task: # iterate: O=C(O)c1cc(/N=N/c2ccc(S(=O)(=O)Nc3ccccn3)cc2)ccc1O [SULFASALAZINE]
Result: 34.1

The measurements presented in this section are drawn from ChEMBL document CHEMBL3885861.
